- System: T47D
- protocol_text: Microculture tetrazolium assay
- Assay type: cell-based
- run_conditions: Homo sapiens, read-out: IC50
pIC50: −log10 of the molar value.
Threshold check on pIC50: at or above 5 gives Satisfied, strictly below gives Not satisfied.

compound="CCOC(=O)C1Cc2c(O)c3c(c(O)c2CO1)C(=O)c1ccccc1C3=O (stereo not shown) [BCH-650]" label_class="Not satisfied"
compound="CCOC(=O)[C@@H]1CC2=C(C(=O)c3cc4ccccc4c(OC(C)=O)c3C2=O)[C@@H](O)O1 (mixture of isomers) [BCH-660]" label_class=Satisfied
compound="C[C@@H]1O[C@@H](O[C@H]2O[C@H](C(C)(F)F)CC3=C2C(=O)c2cc4ccccc4c(O)c2C3=O)C[C@H](O)[C@@H]1O (mixture of isomers) [BCH-1662]" label_class="Not satisfied"
compound="CC(=O)C1CC2=C(C(=O)c3cc4ccccc4c(O)c3C2=O)C(O[C@H]2C[C@H](NC(=O)C(F)(F)F)[C@H](OS(C)(=O)=O)[C@H](C)O2)O1 (stereo partly shown) [BCH-2094]" label_class=Satisfied
compound="CC1(C2Cc3c(O)c4c(c(O)c3CO2)C(=O)c2ccccc2C4=O)OCCO1 (stereo not shown) [BCH-1114]" label_class="Not satisfied"

API: above_or_equal(metric=pIC50, cutoff=5) for item COC(=O)[C@H]1CC2=C(C(=O)c3c(c(OC)c4ccccc4c3O)C2=O)[C@H](O[C@H]2C[C@H](NC(=O)C(F)(F)F)[C@H](O)[C@H](C)O2)O1 (mixture of isomers) [BCH-675]
Satisfied

Is reported pIC50 greater than or equal to 5 here: C=CC1CC2=C(C(=O)c3cc4ccccc4c(O)c3C2=O)C(O[C@H]2C[C@H](NC(=O)C(F)(F)F)[C@H](O)[C@H](C)O2)O1 (stereo partly shown) [BCH-1168]
Not satisfied

----------
- System: NSC Lung
Listed below: GI50 values for each entry.
Respond numerically; units are µM and should not be typed.

A selection of reference data follows.
molecule=COC(=O)[C@@H]1CC2=C(C(=O)c3cc4ccccc4c(O)c3C2=O)[C@@H](O[C@H]2C[C@H](NC(=O)C(F)(F)F)[C@H](O)[C@H](C)O2)O1 meas_value=3.02
molecule="COC(=O)[C@@H]1CC2=C(C(=O)c3c(c(OC)c4ccccc4c3O)C2=O)[C@@H](O[C@H]2C[C@H](NC(=O)C(F)(F)F)[C@H](O)[C@H](C)O2)O1 (mixture of isomers)" meas_value=9.33
molecule="COc1cccc2c1C(=O)c1c(O)c3c(c(O)c1C2=O)C[C@@](O)(C(=O)CO)C[C@@H]3O[C@H]1C[C@H](N)[C@H](O)[C@H](C)O1 [ADR, reference compound]" meas_value=0.0468
molecule="COC(=O)[C@H]1CC2=C(C(=O)c3c(c(OC)c4ccccc4c3O)C2=O)[C@H](O[C@H]2C[C@H](NC(=O)C(F)(F)F)[C@H](O)[C@H](C)O2)O1 (mixture of isomers)" meas_value=9.33

Please respond with reported GI50 (system NSC Lung) for `COC(=O)[C@@H]1CC2=C(C(=O)c3cc4ccccc4cc3C2=O)[C@H](O[C@H]2C[C@H](NC(=O)C(F)(F)F)[C@H](O)[C@H](C)O2)O1` .
3.55
